Target: T1, human CD3ε on primary human T cells (human, UniProt P07766 23-207)
T1 construct: whole, on cells; Part of the TCR-CD3 complex on the cells; also called cell-surface CD3ε; CD3E
T1 sequence (P07766 23-207): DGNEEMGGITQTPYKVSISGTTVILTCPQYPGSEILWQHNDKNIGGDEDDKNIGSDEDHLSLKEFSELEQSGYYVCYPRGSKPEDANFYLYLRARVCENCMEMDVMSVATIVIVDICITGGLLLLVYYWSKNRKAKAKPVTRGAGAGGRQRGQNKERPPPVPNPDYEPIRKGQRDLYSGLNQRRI
Experiment: flow cytometry on primary human T cells (cell-surface CD3e), anti-human IgG (H+L) Alexa Fluor 647; one intermediate concentration of the titration is shown
Procedure: The resulting panel of anti-CD3 antibodies was tested for binding against cell-surface CD3ε on primary human T cells. To do this, binding of antibodies from expression supernatants was visualized using a polyclonal anti-human secondary antibody and analyzed by flow cytometry. Briefly, binding of anti-CD3 antibodies to cell-surface CD3E was assessed by flow cytometry using primary Human T lymphocytes purified by negative selection (Biological Specialty, Colmar, USA). […]

[
  {
    "BINDER": "CD3B148 (antibody, V domains shown, also called CD3H142/CD3L64) VH: EVQLLESGGGLVQPGGSLRLSCAASGFTFNTYAMNWVRQAPGKGLEWVARIRSKYNNYATYYADSVKGRFTISRDNSKNTLYLQMNSLRAEDTAVYYCAKHGNFGNSYVSWFAYWGQGTLVTVSS VL: QSVLTQPPSVSAAPGQKVTISCRSSTGAVTTSNYANWVQQLPGTAPKGLIGGTNKRAPGIPDRFSGSKSGTSATLGITGLQTGDEADYYCALWYSNLWVFGGGTKLTVL",
    "binding result": "binds"
  }
]
